Values compiled from patent US9944618B2.

Target: UniProt:P08684
Sequence (P08684 whole entry): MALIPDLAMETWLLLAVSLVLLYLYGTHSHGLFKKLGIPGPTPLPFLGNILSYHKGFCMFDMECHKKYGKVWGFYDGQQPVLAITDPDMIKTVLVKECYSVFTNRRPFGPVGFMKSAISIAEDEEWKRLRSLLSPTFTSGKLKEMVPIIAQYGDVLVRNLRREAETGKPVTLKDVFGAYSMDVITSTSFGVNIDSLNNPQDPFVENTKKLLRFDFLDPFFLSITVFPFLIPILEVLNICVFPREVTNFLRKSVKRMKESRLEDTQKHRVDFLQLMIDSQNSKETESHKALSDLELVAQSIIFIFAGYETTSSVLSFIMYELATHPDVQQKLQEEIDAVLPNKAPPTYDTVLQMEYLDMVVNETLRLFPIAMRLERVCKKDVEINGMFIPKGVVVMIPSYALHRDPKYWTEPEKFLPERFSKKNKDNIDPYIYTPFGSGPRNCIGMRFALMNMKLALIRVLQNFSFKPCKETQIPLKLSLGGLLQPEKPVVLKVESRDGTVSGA
Assay: Cytochrome P450 inhibition assay, recombinant CYP3A4 (BFC substrate)
Type: in vitro ADME
Conditions: recombinant enzyme
pIC50: −log10 of the molar value.
Lab note: anything with pIC50 at or over 5 counts as Criterion met; the rest go in Criterion not met.

Check this compound for pIC50 at or above 5: CNC[C@H](c1ccc2ccccc2c1)[C@H](OCC(=O)N1CCOCC1)c1ccccc1 Criterion not met

Turning now to a further compound:
Could you please find out whether CNC[C@H](c1ccc2ccccc2c1)[C@@H](Cl)c1ccccc1 has pIC50 that meets 5 or exceeds it? Criterion not met

###

Target: CYP2D6 (Homo sapiens (Human), UniProt P10635)
Sequence (P10635 whole entry): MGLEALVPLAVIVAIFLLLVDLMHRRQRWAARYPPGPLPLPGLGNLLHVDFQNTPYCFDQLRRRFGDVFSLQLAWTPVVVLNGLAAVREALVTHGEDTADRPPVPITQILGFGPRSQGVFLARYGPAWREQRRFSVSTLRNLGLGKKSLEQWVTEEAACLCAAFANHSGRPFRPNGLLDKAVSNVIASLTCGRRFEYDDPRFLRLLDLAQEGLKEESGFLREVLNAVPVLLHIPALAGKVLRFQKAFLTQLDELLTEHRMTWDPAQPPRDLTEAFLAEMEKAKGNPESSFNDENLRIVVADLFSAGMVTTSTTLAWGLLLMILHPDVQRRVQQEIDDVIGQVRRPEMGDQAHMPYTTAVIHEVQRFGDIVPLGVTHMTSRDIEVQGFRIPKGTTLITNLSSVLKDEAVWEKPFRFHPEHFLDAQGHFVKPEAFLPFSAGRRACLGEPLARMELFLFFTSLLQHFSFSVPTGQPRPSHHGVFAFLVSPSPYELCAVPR
Assay: Cytochrome P450 inhibition assay, recombinant CYP2D6 (MAMC substrate)
Type: in vitro ADME
Conditions: recombinant enzyme
Rule: measured IC50 below 200 nM gets T; anything equal to or greater than 200 nM gets F.

# check: IC50 < 200 nM for CNC[C@H](c1ccc2ccccc2c1)[C@H](OCc1nc(C)no1)c1ccccc1 [Compound 67] F

Hi there! Is IC50 for CNC[C@H](Cc1ccccc1O)c1ccc2ccccc2c1 [Compound 140] below 200 nM, do you know? F

Strictly below 200 nM: is that where IC50 of CNCC(Cc1ccccc1CO)c1ccc2ccccc2c1 (centres unmarked) [Compound 2] sits? T

Is 200 nM strictly greater than the compound's reported IC50? compound: CNCC(Cc1ccccc1OC)c1ccc2ccccc2c1 (centres unmarked) [Compound 57] T

Here is the next item to consider.
Check if IC50 falls below 200 nM for CCc1ccccc1[C@@H](O)[C@H](CNC)c1ccc(Cl)c(Cl)c1 [Compound 158] . T

###

Assay: pKa of basic centres (Table 1)
Type: physicochemical
Settings: second base in the same molecule (if present); read-out: pKa (Base 2)
Overview of recorded pKa for various molecules

Some entries whose results are on file:
Could you share which pKa value was measured for NCC[C@@H](Cc1cccnc1)c1ccc(Cl)c(Cl)c1 ? 5.1

# query: pKa of entry CNC[C@H](c1ccc(Cl)c(Cl)c1)[C@H](O)c1cccc(N(C)C)c1 (single isomer, unassigned) 4.9

Give its pKa value. Item: CNC[C@H](c1ccc(Cl)c(Cl)c1)[C@H](O)c1cccc(N)c1 4.3

Quick one: pKa of CNC[C@H](c1ccc2ccccc2c1)[C@H](O)c1ccncc1 ? 5.4

Entry CNC[C@@H](c1ccc(Cl)c(Cl)c1)[C@@H](O)c1cccc(N)c1 : reported pKa = ? 4.3

Quick one: pKa for CNC[C@@H](c1ccc(Cl)c(Cl)c1)[C@@H](O)c1cccc(N(C)C)c1 (single isomer, unassigned) ? 4.9

Continuing:
Given the entry CNC[C@@H](c1ccc(Cl)c(Cl)c1)[C@@H](O)c1cncc(OC)c1 , report its measured pKa. 4.5

I am curious: what pKa value has been reported for CNCC(Cc1ccccc1)c1ccc2cccnc2c1 (stereo not shown) ? 4.8

Can you look up the measured pKa of CNC[C@@H](c1ccc2ccccc2c1)[C@@H](O)c1cncc(OC)c1 for me? 4.5

Sample CNC[C@@H](c1ccc(Cl)c(Cl)c1)[C@@H](O)c1cccnc1OC — what was its pKa? 3.2

Entry under review: CNC[C@@H](c1ccc2ccccc2c1)[C@@H](O)c1cccnc1 . Reported pKa? 5.1

###

Target: CYP2D6 (Homo sapiens (Human), UniProt P10635)
Assay: Cytochrome P450 inhibition assay, recombinant CYP2D6 (MAMC substrate)
Assay type: in vitro ADME
Conditions: recombinant enzyme
endpoint.name: IC50 (nM)
Provide the reading as a plain figure in nM.

In the examples that follow, each entry is paired with its recorded IC50.
IC50 for CNC[C@H](c1ccc(Cl)c(Cl)c1)[C@@H](O)c1ccccc1SC ? 180

Which IC50 is reported for this compound? CNC[C@H](c1ccc2ccccc2c1)[C@H](OCC(=O)N1CCOCC1)c1ccccc1 4900

Data request, read-out IC50, for CNC[C@H](c1ccc(Cl)c(Cl)c1)[C@@H](O)c1cccc(NC(C)=O)c1 3000

New cases:
I have this compound here, CNCC(Cc1cccs1)c1ccc2ccccc2c1 (racemic) , and I need its recorded IC50. 960

Which IC50 reading was recorded for the compound CNC[C@@H](c1ccc2ccccc2c1)[C@@H](O)c1cccnc1 [Compound 103] ? 11000

Given the entry CNC[C@H](c1ccc2ccccc2c1)[C@H](O)c1ccc(Cl)nc1 , report its measured IC50. 27

###

Ki: recorded values
Target: human norepinephrine transporter (Homo sapiens (Human), UniProt P23975)
Sequence (P23975 whole entry): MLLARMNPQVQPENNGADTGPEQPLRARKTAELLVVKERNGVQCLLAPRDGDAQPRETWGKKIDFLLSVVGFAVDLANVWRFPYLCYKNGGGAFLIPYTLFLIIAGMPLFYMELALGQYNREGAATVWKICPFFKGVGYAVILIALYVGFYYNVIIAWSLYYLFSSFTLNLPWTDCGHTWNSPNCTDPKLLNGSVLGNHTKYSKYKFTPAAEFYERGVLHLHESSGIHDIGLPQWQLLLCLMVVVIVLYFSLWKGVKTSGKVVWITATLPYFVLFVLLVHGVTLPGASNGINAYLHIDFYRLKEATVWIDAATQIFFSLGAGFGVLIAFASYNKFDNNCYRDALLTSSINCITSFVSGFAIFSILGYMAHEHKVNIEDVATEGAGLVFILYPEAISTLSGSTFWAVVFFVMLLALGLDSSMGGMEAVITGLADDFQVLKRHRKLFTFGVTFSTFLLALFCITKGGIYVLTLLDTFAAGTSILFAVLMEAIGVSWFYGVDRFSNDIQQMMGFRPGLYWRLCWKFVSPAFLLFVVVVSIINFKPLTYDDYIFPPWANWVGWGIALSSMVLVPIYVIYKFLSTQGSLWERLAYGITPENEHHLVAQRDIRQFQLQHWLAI
Test: Human NET (norepinephrine transporter) uptake assay
Assay type: cell-based
Conditions: read-out: hNET Ki
Please respond with the number in nM and leave the unit unwritten.

Reference set, count: 10
Requested read-out: Ki. Entry: CN(C)C[C@H](c1ccc2ccccc2c1)[C@H](OCCO)c1ccccc1 [Compound 89] 21.4

Record request: Ki value, item CNC[C@H](c1ccc2ccccc2c1)[C@H](OCC(=O)N(C)C)c1ccccc1 [Compound 33] 2.7

// returns reported Ki for input CNC[C@H](c1ccc(Cl)c(Cl)c1)[C@@H](O)c1ccccc1SC [Compound 97] 38.2

Any idea what Ki was measured for CNC[C@H](C[C@H](O)c1ccccc1)c1ccc2ccccc2c1 [Compound 93] ? 29.5

Any idea what Ki was measured for CNC[C@@H](c1ccc(Cl)c(Cl)c1)[C@@H](O)c1cccc(SC)c1 [Compound 154] ? 37.1

I have this compound here, CN(C)CC(C)(c1ccc2ccccc2c1)C(O)c1ccccc1 (stereo not drawn) [Compound 86] , and I need its recorded Ki. 16.7

Returns the measured Ki for the input compound. Input: CN(C)C[C@H](c1ccc2ccccc2c1)[C@H](O)c1ccccc1 [Compound 83] 15.7

Bench note: what Ki did CNCC(Cc1ccccc1CO)c1ccc2ccccc2c1 (stereo not drawn) [Compound 90] show? 22.6

// lookup Ki for CNC[C@H](c1ccc2ccccc2c1)[C@H](OCC(=O)N(C)OC)c1ccccc1 [Compound 71] 10

Would you mind telling me what Ki value was observed for NCC(c1ccc2ccccc2c1)C(O)c1ccc(F)cc1F (stereo not drawn) [Compound 107] ? 82.2

Continuing:
Data request, read-out Ki, for CNC[C@H](c1ccc2ccccc2c1)[C@H](F)c1ccccc1 [Compound 9] 1.5

Can you look up the measured Ki of CNC[C@H](c1ccc2ccccc2c1)[C@H](O)c1ccncc1 [Compound 12] for me? 1.6

// Ki lookup, key: CNC[C@H](c1ccc(Cl)c(Cl)c1)[C@@H](O)c1ccccc1S(C)(=O)=O [Compound 170] 306

I have this compound here, CNC[C@H](c1ccc(Cl)c(Cl)c1)[C@H](O)c1cccc(N(C)C)c1 (single isomer, unassigned) [Compound 168] , and I need its recorded Ki. 89.3

Would you kindly share the measured Ki for CNC[C@H](c1ccc(OC)c(C)c1)[C@H](O)c1cccnc1 [Compound 55] ? 4.6

So what's the measured Ki for this one? CNCC(Cc1cccnc1)c1ccc2ccccc2c1 (stereo not drawn) [Compound 48] 3.8

Which Ki reading was recorded for the compound CNCC(CCc1ccccc1)[C@H](O)c1ccccc1 (stereo partly drawn) [Compound 66] ? 8.1

Item CNC[C@H](c1ccc(Cl)c(Cl)c1)[C@H](O)c1ccccc1SC [Compound 156] has what recorded Ki? 17.2

What Ki value was documented for this compound, CNC[C@H](c1ccc2ccccc2c1)[C@H](OCC(=O)N1CCC1)c1ccccc1 [Compound 30] ? 2.4

So what's the measured Ki for this one? CNC[C@H](c1ccc2ccccc2c1)[C@H](OCC(=O)NC1CC1)c1ccccc1 [Compound 13] 1.6

Could you share which Ki value was measured for CNC[C@H](c1ccc(Cl)c(Cl)c1)[C@@H](O)c1ccccc1-c1cccs1 [Compound 100] ? 43.8

Form field: reported Ki of CNC[C@@H](c1ccc2ccccc2c1)[C@H](O)c1ccccn1 (racemic) [Compound 72] 10.1

// lookup Ki for CNC[C@@H](c1ccc2ccccc2c1)[C@@H](OCC(N)=O)c1ccccc1 [Compound 117] 236

###

Molecular target: human dopamine transporter (Homo sapiens (Human), UniProt Q01959)
Sequence (Q01959 whole entry): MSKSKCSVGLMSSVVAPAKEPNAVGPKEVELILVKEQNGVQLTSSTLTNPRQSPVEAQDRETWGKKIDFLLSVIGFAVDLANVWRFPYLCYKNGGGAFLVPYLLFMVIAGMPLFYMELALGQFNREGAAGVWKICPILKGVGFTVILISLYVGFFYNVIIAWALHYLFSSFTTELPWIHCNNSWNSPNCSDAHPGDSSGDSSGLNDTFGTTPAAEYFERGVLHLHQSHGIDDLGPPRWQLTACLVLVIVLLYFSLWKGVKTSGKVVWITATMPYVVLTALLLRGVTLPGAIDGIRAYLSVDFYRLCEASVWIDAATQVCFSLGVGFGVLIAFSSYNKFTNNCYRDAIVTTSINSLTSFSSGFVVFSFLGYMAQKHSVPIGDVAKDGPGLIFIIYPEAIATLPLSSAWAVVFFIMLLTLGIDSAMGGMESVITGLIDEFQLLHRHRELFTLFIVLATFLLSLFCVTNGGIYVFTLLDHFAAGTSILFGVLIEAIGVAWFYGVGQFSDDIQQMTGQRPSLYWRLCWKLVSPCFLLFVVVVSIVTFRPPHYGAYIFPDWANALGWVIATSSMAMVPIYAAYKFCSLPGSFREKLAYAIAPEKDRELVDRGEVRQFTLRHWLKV
Assay: Human DAT (dopamine transporter) uptake assay
Type: cell-based
Settings: read-out: hDAT Ki
Just a reminder that ties go to Not fulfilled: only Ki strictly below 50 nM counts as Fulfilled.

These solved cases illustrate the format of a correct answer.
Find out if reported Ki for CNCC(Cc1cccnc1)c1ccc2ccccc2c1 (stereo not drawn) [Compound 74] is less than 50 nM Not fulfilled

Hello, is Ki of the following compound strictly smaller than 50 nM? CN1CCO[C@@H](c2ccccc2)[C@@H](c2ccc3ccccc3c2)C1 Not fulfilled

Confirm or reject: Ki of CNC[C@@H](c1ccc2ccccc2c1)[C@@H](O)c1cccs1 lies strictly below 50 nM Not fulfilled

Report whether reported Ki is lower than 50 nM (strictly) for CN(C)C[C@H](c1ccc2ccccc2c1)[C@H](O)c1cccs1 (racemic) Not fulfilled

Report whether reported Ki is lower than 50 nM (strictly) for CNC[C@H](c1ccc2ccccc2c1)[C@H](OCC(N)=O)c1ccccc1 Fulfilled

---
Here's an entry: CNC[C@@H](c1ccc2ccccc2c1)[C@@H](O)c1cccnc1 [Compound 103] . Is its Ki below 50 nM? Not fulfilled

Lab note: Ki threshold 50 nM. Does this compound come in strictly under it? CNC[C@@H](c1ccc(Cl)c(Cl)c1)[C@@H](O)c1ccccc1 Fulfilled

I'd appreciate it if you could check whether CNC[C@H](c1ccc2ccccc2c1)[C@H](OC)c1ccc2c(c1)OCO2 (racemic) has Ki smaller than 50 nM. Not fulfilled

Ki strictly < 50 nM for this compound? CNC[C@H](c1ccc(Cl)c(Cl)c1)[C@H](O)c1cccc(N)c1 Fulfilled

Please state whether Ki is below 50 nM for CNC[C@@H](c1ccc(Cl)c(Cl)c1)[C@@H](O)c1cccc(N)c1 Not fulfilled
